tested-system: Rhesus PDE2A3 (Macaca mulatta, UniProt B3VTJ2)
Construct: made in house; host or cells: AD293 cells, transient transfection; supernatant of sonicated lysate
Sequence (B3VTJ2 1-941): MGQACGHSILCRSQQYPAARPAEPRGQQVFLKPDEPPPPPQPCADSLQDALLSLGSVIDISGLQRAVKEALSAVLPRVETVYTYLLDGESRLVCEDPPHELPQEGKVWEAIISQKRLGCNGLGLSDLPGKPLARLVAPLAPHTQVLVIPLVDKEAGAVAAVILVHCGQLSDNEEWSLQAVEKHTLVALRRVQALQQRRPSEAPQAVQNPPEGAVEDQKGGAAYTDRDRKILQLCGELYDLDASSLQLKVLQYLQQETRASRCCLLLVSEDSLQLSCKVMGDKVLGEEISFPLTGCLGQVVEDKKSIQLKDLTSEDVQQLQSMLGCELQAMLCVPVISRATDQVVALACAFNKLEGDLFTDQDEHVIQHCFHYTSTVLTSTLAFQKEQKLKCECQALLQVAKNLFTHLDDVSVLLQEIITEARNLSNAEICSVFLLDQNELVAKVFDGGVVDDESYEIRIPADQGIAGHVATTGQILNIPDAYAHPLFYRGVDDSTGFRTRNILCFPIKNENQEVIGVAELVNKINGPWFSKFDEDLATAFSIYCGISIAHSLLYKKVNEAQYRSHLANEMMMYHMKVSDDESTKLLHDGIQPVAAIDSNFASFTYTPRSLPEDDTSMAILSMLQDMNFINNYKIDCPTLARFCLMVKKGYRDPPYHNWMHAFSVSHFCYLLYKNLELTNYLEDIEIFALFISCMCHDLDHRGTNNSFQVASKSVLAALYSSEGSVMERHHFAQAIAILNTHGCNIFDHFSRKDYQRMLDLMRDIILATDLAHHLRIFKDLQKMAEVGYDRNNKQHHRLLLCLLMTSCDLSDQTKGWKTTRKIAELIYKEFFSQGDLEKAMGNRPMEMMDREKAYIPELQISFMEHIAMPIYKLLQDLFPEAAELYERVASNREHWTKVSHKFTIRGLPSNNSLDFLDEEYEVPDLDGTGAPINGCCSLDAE
assay-protocol: PDE2 fluorescence polarization (IMAP FP) inhibition assay, rhesus PDE2A3
Type: biochemical, rhesus macaque
assay-setup: Lab B; read-out: Rhesus PDE2 Ki (nM) Lab B
readout-name: Ki (nM)

molecule="COc1cccc(Cc2nc3c(c(CF)nn3C(C)c3ccc(C(F)(F)F)cc3)c(=O)[nH]2)c1 (single isomer, unassigned) [Example 221]" readout_name=Ki recorded_measurement=1.9
molecule="Cc1nc2c(c(CO)nn2C(C)c2ccc(OC(F)F)cc2)c(=O)[nH]1 (single isomer, unassigned)" readout_name=Ki recorded_measurement=2.9
molecule="Cc1nc2c(c(CO)nn2C(c2ccc(OC(F)(F)F)c(F)c2)C2CC2)c(=O)[nH]1 (single isomer, unassigned) [Example 92]" readout_name=Ki recorded_measurement=10

###

tested-system: human PDE2A1 (Homo sapiens, UniProt O00408)
Construct: GST; purchased BPS Bioscience (San Diego, Calif.) 60020; host or cells: insect cells
Sequence (O00408 1-920 isoform O00408-2): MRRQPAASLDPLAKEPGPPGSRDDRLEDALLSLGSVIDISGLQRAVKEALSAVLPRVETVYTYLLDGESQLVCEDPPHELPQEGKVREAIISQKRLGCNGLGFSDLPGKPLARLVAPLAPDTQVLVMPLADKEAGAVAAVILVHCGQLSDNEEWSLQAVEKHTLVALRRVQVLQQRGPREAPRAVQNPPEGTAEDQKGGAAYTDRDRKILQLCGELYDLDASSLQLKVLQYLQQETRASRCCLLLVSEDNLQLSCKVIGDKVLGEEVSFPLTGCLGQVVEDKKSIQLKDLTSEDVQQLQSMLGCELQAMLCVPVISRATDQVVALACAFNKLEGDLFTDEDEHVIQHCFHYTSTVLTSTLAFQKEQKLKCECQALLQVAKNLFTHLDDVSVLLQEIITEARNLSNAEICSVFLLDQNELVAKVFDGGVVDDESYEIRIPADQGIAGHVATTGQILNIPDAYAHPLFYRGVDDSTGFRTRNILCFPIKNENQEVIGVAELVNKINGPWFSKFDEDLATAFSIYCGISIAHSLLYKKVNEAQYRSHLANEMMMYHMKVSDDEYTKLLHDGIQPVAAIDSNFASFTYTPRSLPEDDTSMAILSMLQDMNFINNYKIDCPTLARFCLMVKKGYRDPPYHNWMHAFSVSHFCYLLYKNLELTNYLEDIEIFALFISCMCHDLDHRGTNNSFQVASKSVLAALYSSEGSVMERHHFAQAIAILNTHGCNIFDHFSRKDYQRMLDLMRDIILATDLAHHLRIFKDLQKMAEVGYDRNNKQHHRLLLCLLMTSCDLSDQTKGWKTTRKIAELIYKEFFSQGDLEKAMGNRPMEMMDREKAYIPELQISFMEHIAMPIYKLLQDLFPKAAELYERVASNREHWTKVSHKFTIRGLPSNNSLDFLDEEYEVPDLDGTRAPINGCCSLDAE
assay-protocol: IMAP FP PDE assay, human PDE2A1
Type: biochemical
assay-setup: Lab B; read-out: Human PDE2 Ki (nM) Lab B
Binarize Ki at 1 nM; below is 1, at or above is -1.

compound="CC(c1ccc(C(F)(F)F)cc1)n1nc(CO)c2c(=O)[nH]c(CC3CC3)nc21 (single isomer, unassigned) [Example 310]" category_label=-1
compound="CC(c1ccc(C(F)(F)F)cc1)n1nc(CO)c2c(=O)[nH]c(C3CCCO3)nc21 (single isomer, unassigned) [Example 314]" category_label=-1
compound="COc1ccc(Cc2nc3c(c(C(F)F)nn3C(C)c3ccc(C(F)(F)F)cc3)c(=O)[nH]2)cc1OC (single isomer, unassigned) [Example 197]" category_label=1
compound="Cc1nc2c(c(CO)nn2C(c2ccc(C(F)(F)F)c(F)c2)C2(C)CC2)c(=O)[nH]1 (single isomer, unassigned) [Example 15]" category_label=-1
compound="Cc1nc2c(c(CCl)nn2C(c2ccc(C(F)(F)F)cc2)C2CC2)c(=O)[nH]1 (stereo not shown)" category_label=1
compound="COc1cccc(Cc2nc3c(c(CF)nn3C(C)c3ccc(C(F)(F)F)cc3)c(=O)[nH]2)c1 (single isomer, unassigned)" category_label=-1
compound="Cc1nc2c(c(CO)nn2C(C)c2ccc(C(F)(F)F)c(F)c2)c(=O)[nH]1 (single isomer, unassigned) [Example 13]" category_label=-1
compound=Cc1nc2c(c(CO)nn2[C@@H](c2ccc(C(C)(C)C)cc2)C(C)C)c(=O)[nH]1 category_label=1
compound="Cc1nc2c(c(C(F)F)nn2C(C)c2ccc(OC(F)F)cc2)c(=O)[nH]1 (single isomer, unassigned) [Example 182]" category_label=1
compound="Cc1nc2c(c(CF)nn2C(C)c2ccc(OC(F)(F)F)cc2)c(=O)[nH]1 (single isomer, unassigned) [Example 207]" category_label=-1
compound="Cc1nc2c(c(CO)nn2C(c2ccc(OC(F)(F)F)c(F)c2)C2CC2)c(=O)[nH]1 (single isomer, unassigned) [Example 92]" category_label=-1
compound="COc1ccc(Cc2nc3c(c(CF)nn3C(C)c3ccc(C(F)(F)F)cc3)c(=O)[nH]2)cc1OC (single isomer, unassigned)" category_label=1
